FYI, the data here is from paper PMC10112521.

- Experimental system: human AR (Homo sapiens, UniProt P10275)
- Sequence (P10275 whole entry): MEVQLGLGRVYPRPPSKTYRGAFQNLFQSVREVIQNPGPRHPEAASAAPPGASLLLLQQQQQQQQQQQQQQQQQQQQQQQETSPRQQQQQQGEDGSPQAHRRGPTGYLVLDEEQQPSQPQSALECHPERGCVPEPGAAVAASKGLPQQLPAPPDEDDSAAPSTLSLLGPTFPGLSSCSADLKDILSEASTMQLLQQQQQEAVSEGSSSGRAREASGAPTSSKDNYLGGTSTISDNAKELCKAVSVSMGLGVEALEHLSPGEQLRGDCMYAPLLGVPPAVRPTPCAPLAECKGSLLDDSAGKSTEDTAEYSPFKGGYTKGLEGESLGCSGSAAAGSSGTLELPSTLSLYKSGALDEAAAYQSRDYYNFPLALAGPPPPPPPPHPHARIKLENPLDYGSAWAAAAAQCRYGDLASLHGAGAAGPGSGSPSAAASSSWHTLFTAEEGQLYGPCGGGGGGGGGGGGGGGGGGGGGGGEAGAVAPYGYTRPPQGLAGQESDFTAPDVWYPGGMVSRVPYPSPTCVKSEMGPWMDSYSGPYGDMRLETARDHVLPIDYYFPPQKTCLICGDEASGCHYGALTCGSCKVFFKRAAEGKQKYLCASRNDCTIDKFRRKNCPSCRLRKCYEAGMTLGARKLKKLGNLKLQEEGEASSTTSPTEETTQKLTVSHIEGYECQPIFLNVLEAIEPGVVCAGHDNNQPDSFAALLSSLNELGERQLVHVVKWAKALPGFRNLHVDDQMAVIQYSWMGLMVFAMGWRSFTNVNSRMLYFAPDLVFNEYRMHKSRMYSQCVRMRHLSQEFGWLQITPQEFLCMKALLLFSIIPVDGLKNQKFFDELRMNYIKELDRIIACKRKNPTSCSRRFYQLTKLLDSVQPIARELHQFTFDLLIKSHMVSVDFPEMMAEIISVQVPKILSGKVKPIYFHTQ
- Sequence (P10275 whole entry): as above
- Procedure summary: AR2 assay, agonist mode: ligand-dependent AR homodimerization (NanoBiT luciferase complementation) in stable HepG2-AR2 cells
- Assay type: cell-based
- Condition parameters: sheet agonist_fits; winning concentration-response model (Constant, Hill, Gain-Loss)
Measured endpoint: win_model

Solved entries (count: 5):
{"Compound": "CNC(=O)Oc1cccc2c1OC(C)(C)C2", "Experimental system": "human AR (Homo sapiens, UniProt P10275)", "win_model": "Constant"}
{"Compound": "C[C@H]1CCCC(=O)CCC/C=C/c2cc(O)cc(O)c2C(=O)O1", "Experimental system": "human AR (Homo sapiens, UniProt P10275)", "win_model": "Constant"}
{"Compound": "O=C(c1ccc(O)cc1O)c1ccc(O)cc1O [2,2',4,4'-Tetrahydroxybenzophenone]", "Experimental system": "human AR (Homo sapiens, UniProt P10275)", "win_model": "Gain-Loss"}
{"Compound": "CC1(C)[C@H](C(=O)O[C@H](C#N)c2cccc(Oc3ccccc3)c2)[C@@H]1C=C(Br)Br", "Experimental system": "human AR (Homo sapiens, UniProt P10275)", "win_model": "Constant"}
{"Compound": "O=[N+]([O-])c1ccc(O)c([N+](=O)[O-])c1", "Experimental system": "human AR (Homo sapiens, UniProt P10275)", "win_model": "Constant"}

What value of win_model has been reported for the following compound? N#Cc1ccc(C(c2ccc(C#N)cc2)n2cncn2)cc1
Gain-Loss

What value of win_model has been reported for the following compound? CC(C)(O)C(=O)Nc1ccc([N+](=O)[O-])c(C(F)(F)F)c1 [Hydroxyflutamide]
Hill

What value of win_model has been reported for the following compound? C[C@]12CC[C@@H]3c4ccc(O)cc4CC[C@H]3[C@@H]1CCC2=O
Hill

What value of win_model has been reported for the following compound? COC(=O)Nc1nc2ccccc2[nH]1
Constant
